Reported values of ED50 for individual entries
- System: serotonine-induced bronchospasm
- ASSAY TEXT: Bronchospasmolytic activity (Konzett-Rossler): inhibition of serotonine-induced bronchospasm in guinea-pigs
- Format: in vivo
- ASSAY CONDITIONS: Cavia porcellus, iv, guinea-pig, urethane anaesthesia; read-out: Bronchospasmolytic effect (ED50) compared to serotonine
Give the value, in units of mg/kg, as a plain number.

>>> print(df.to_string())
                                   molecule  experimental_value
0  Cn1c(=O)c2[nH]cnc2n(C)c1=O.NCCN [Theophylline-ethylenediamine, theophylline-ethylenediamine, reference compound]                 7.3
1  CCn1c(=O)c2c(ncn2CCCCC(O)CO)n(C)c1=O (stereo not drawn)                 6.5
2  CCCCCn1c(=O)c2c(ncn2CCCCC(O)CO)n(C)c1=O (stereo not drawn)                   3
3  CCCn1c(=O)n(CCCCC(O)CO)c(=O)c2c1ncn2C (stereo not drawn)                   3
4  CCCCCn1c(=O)c2c(ncn2CCCCC(O)CO)n(CC)c1=O (stereo not drawn)                   3

Problem: Supply measured ED50 of CC(C)CCn1c(=O)c2c(ncn2CCCCC(O)CO)n(C)c1=O (stereo not drawn) in your reply.
Solution: 6.5

Problem: Give the reported value of ED50 for this record: CCn1c(=O)c2c(ncn2CCCCC(O)CO)n(CC)c1=O (stereo not drawn)
Solution: 2

Problem: Quick one: give measured ED50 for CCn1c(=O)n(C(C)C)c(=O)c2c1ncn2CCCCC(O)CO (stereo not drawn)
Solution: 2

Problem: # return recorded ED50 for input CCCn1c(=O)c2c(ncn2CCC(O)CO)n(CCC)c1=O (stereo not drawn)
Solution: 10

Problem: Input CCCCn1c(=O)c2c(ncn2CCCCC(O)CO)n(CC)c1=O (stereo not drawn) , output reported ED50.
Solution: 0.6

Problem: Give the reported value of ED50 for this record: CCCn1c(=O)c2c(ncn2CCCC(O)C(C)O)n(CC)c1=O (stereo not drawn)
Solution: 2

Problem: State its ED50 for this molecule: CCCn1c(=O)c2c(ncn2CC(O)CO)n(CCC)c1=O (stereo not drawn)
Solution: 10

Problem: Consider the molecule CCn1c(=O)c2c(ncn2CC)n(CCCCC(O)CO)c1=O (stereo not drawn) and give its recorded ED50.
Solution: 2

Problem: Retrieve ED50 measured for CCCn1c(=O)c2c(ncn2CCCCC(O)CO)n(CC)c1=O (stereo not drawn) and print it.
Solution: 0.3

Problem: Fill in reported ED50 for this entry: CCCCn1c(=O)c2c(ncn2CCCCC(O)CO)n(C)c1=O (stereo not drawn)
Solution: 3

Problem: Look up and report measured ED50 for this entry: CCCn1c(=O)c2c(ncn2CCCCC(O)CO)n(C)c1=O (stereo not drawn)
Solution: 6.5

Problem: Given the molecule CCn1c(=O)n(C)c(=O)c2c1ncn2CCCCC(O)CO (stereo not drawn) , write its reported ED50.
Solution: 10

The reported measurements were obtained from patent US4616020A.
